Assay: The drug is tested on Blautia luti strain: DSM14534 for biotransformation. The drug concentrations were measured before and after a 12-h incubation by liquid-chromatography-coupled mass spectrometry (LC–MS)
Type: ADME
Design: dose 2 uM, timepoint 0 vs 12 hours
Details: 2 µM

{"COMPOUND": "CC(Oc1c(Cl)cccc1Cl)C1=NCCN1 (stereo not given) [LOFEXIDINE]", "Bacterial Biotransformation": "Compound metabolized"}
{"COMPOUND": "COC1=C(OC)C(=O)C(CCCCCCCCCCO)=C(C)C1=O [IDEBENONE]", "Bacterial Biotransformation": "Compound metabolized"}
{"COMPOUND": "Nc1ccc(/N=N/c2ccccc2)c(N)n1 [PHENAZOPYRIDINE]", "Bacterial Biotransformation": "Compound metabolized"}
{"COMPOUND": "CCN(CC)CCOC(=O)C1(C2CCCCC2)CCCCC1 [DICYCLOMINE]", "Bacterial Biotransformation": "Compound NOT metabolized"}
{"COMPOUND": "C[C@H]1O[C@@H](O[C@H]2[C@@H](O)C[C@H](O[C@H]3[C@@H](O)C[C@H](O[C@H]4CC[C@@]5(C)[C@H](CC[C@@H]6[C@@H]5C[C@@H](O)[C@]5(C)[C@@H](C7=CC(=O)OC7)CC[C@]65O)C4)O[C@@H]3C)O[C@@H]2C)C[C@H](O)[C@@H]1O [DIGOXIN]", "Bacterial Biotransformation": "Compound NOT metabolized"}
{"COMPOUND": "CC(C)NCC(O)c1ccc(NS(C)(=O)=O)cc1 (stereo not given) [SOTALOL]", "Bacterial Biotransformation": "Compound NOT metabolized"}
{"COMPOUND": "CN(C)CCOC(C)(c1ccccc1)c1ccccn1.O=C(O)CCC(=O)O (stereo not given) [DOXYLAMINE SUCCINATE]", "Bacterial Biotransformation": "Compound NOT metabolized"}
{"COMPOUND": "CCN(CC)C(C)CN1c2ccccc2Sc2ccccc21 (stereo not given) [ETHOPROPAZINE]", "Bacterial Biotransformation": "Compound NOT metabolized"}
{"COMPOUND": "Fc1ccc([C@@H]2CCNC[C@H]2COc2ccc3c(c2)OCO3)cc1 [PAROXETINE]", "Bacterial Biotransformation": "Compound NOT metabolized"}
{"COMPOUND": "Cc1cc(C)cc(OCC2CNC(=O)O2)c1 (stereo not given) [METAXALONE]", "Bacterial Biotransformation": "Compound NOT metabolized"}
